# Tested on: Staphylococcus aureus
# protocol-summary: In vitro antibacterial activity against Staphylococcus aureus X1.1
# Type: functional
The compounds listed here are annotated with their MIC.

Look up MIC for this compound: CO/N=C(\C(=O)NC1CN2CCC(C(=O)OC)=C(C(=O)O)N2C1=O)c1csc(N)n1 (configuration not stated)
> 128 µg/mL

For CO/N=C(\C(=O)NC1CN2CCC(C(C)=O)=C(C(=O)O)N2C1=O)c1csc(N)n1 (configuration not stated) , what is its reported MIC?
> 128 µg/mL

Give its MIC value. Item: CCOC(=O)C1=C(C(=O)O)N2C(=O)C(NC(=O)/C(=N\OC)c3csc(N)n3)CN2C1 (configuration not stated)
> 128 µg/mL

Requested read-out: MIC. Entry: CCC(=O)C1=C(C(=O)O)N2C(=O)C(NC(=O)/C(=N\OC)c3csc(N)n3)CN2C1 (configuration not stated)
64 µg/mL

Which MIC reading was recorded for the compound CO/N=C(\C(=O)NC1CN2CC(S(C)(=O)=O)=C(C(=O)O)N2C1=O)c1csc(N)n1 (configuration not stated) ?
64 µg/mL

I am curious: what MIC value has been reported for CO/N=C(\C(=O)NC1CN2CC(C(=O)OC)=C(C(=O)O)N2C1=O)c1csc(N)n1 (configuration not stated) ?
> 128 µg/mL

// query MIC value for entry CCCOC(=O)C1=C(C(=O)O)N2C(=O)C(NC(=O)/C(=N\OC)c3csc(N)n3)CN2C1 (configuration not stated)
> 128 µg/mL

FYI, the data here is from ChEMBL document CHEMBL1126957.
